Where these numbers come from: PubChem BioAssay

# assay-procedure: change in splice reporter luminescence, either direction, cell-based, HEK293, spliceosome inhibition project, primary screen (AID 1101);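 also: HEK293 cells carrying a splicing-competent luciferase reporter gene; test concentration not given here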
# details: HEK293 splicing luciferase reporter, 24 h, higher = more signal, called active from +8 up or from −8 down
Classification field: enter met for z-score values not below 0.3, not met for values below it.

molecule: C=CCN(Cc1ccccc1)C(=O)C(c1cccs1)N(C(=O)/C=C\C(=O)O)c1ccc(CCOCCO)cc1 (centres undefined)
label-class: not met
//
molecule: CC(C)(C)OC(=O)CC[C@]1(C(=O)NCCN2CCOCC2)COC(c2ccc(OCCCO)cc2)=N1
label-class: not met
//
molecule: CN1C(=O)C2C=CC(C(O)c3c(F)cccc3Cl)N(NC(=O)OC(C)(C)C)C2C1=O (centres undefined)
label-class: met
//
molecule: [N-]=[N+]=NCc1ccccc1[C@H]1OC(c2ccc(OCCCO)cc2)=N[C@@]1(Cc1ccccc1)C(=O)N1CCCCC1
label-class: not met

Query block: Please indicate if the recorded z-score for C[N+](C)(C)CCCC[C@@H]1NC(=O)[C@@H]2C[C@H](C(=O)NCCCCCN)[C@H](c3ccc(O)cc3)N2C1=O meets or exceeds 0.3.
Result block: not met

Query block: Could you verify whether the entry COCCCNC(=O)[C@@H]1c2ccccc2C(=O)N(Cc2ccccc2)[C@H]1c1ccc(CO)cc1 shows z-score of no less than 0.3?
Result block: not met

Query block: Determine whether measured z-score meets or exceeds 0.3 for COCC(=C=CC[C@H](O)c1ccccc1OCCO)CCO
Result block: met

Query block: Test whether the molecule CN1C(=O)C2C=CC(C(O)C=Cc3ccc([N+](=O)[O-])cc3)N(Nc3ccccc3)C2C1=O (centres undefined) records z-score of 0.3 or higher.
Result block: met

Query block: Could you verify whether the entry C=CC[C@]12N=C(c3ccc(OCCCO)cc3)O[C@H]1c1ccccc1N(CCS(=O)(=O)c1ccccc1)C2=O shows z-score of no less than 0.3?
Result block: not met

Query block: Reported z-score at or above 0.3? O=C1OCCC=C[C@H]2OC34C=CCN(Cn5nnc6ccccc65)C(=O)[C@H]3N(CCO)C(=O)[C@@H]4C12 (some centres undefined)
Result block: not met

Query block: Dear colleague, could you confirm whether CCOC(=O)C1=CC[C@H]2C(=O)N(c3ccccc3)C(=O)[C@@H]12 has z-score at or above 0.3?
Result block: met

Query block: Could you tell me if the measured z-score of O=C(O)[C@@]1(CCS(=O)(=O)c2ccccc2)N=C(c2ccc(OCCCO)cc2)O[C@H]1c1ccccc1 reaches 0.3 or more?
Result block: not met

Query block: For this molecule, is measured z-score 0.3 or higher? C=C(CCCC)C(=O)CC[C@@H](OC(C)=O)c1ccc(CO)o1
Result block: not met

Query block: Reported z-score at or above 0.3? O=C1NC(=O)C2C1C=CC(C(O)C1CC=CCC1)N2Nc1ccccn1 (centres undefined)
Result block: met

Query block: In plain terms: is recorded z-score at least 0.3 for COc1ccc([C@H]2OC[C@@H]3CCC(=O)N32)cc1 ?
Result block: not met

Query block: Confirm if z-score reported for the molecule NCCCCCNC(=O)[C@H]1C[C@H]2C(=O)N3CCC[C@H]3C(=O)N2[C@H]1c1ccc(O)cc1 is 0.3 or above.
Result block: not met

Query block: Is z-score at least 0.3? Consider COC(=O)[C@@]1(Cc2ccccc2)[C@H]2c3cc(C(=O)N4CCCC4)n(Cc4c(CO)[nH]cc(C)c4=O)c3C[C@H]2CN1C(=O)c1ccccc1
Result block: met

Query block: Determine whether this molecule has z-score no lower than 0.3: CC(C)(C)OC(=O)CC[C@@]1(C(=O)N2CCCCC2)N=C(c2ccc(OCCCO)cc2)O[C@@H]1c1ccccc1
Result block: not met

----------
# assay-procedure: JC-1 mitochondrial signal, unstimulated HepG2 cells – cell-based, JC-1 fluorescence, 24 h, 100 nL compound, profiling panel (AID 1167); also: test concentration not given here
# details: HepG2 mitochondrial potential, higher = more signal
quantity-name: z-score

Worked examples, 2 compounds total:
compound: O=C(CS)NCCCCCNC(=O)[C@H]1C[C@H]2C(=O)NCC(=O)N2[C@H]1c1ccc(O)cc1
z-score: -0.557

compound: [N-]=[N+]=Nc1ccccc1C[C@]1(C(=O)N2CCCCC2)COC(c2ccc(OCCCO)cc2)=N1
z-score: -0.676

Query block: Need z-score of O=C(NCCN1CCOCC1)[C@@H]1c2ccccc2C(=O)N(Cc2cc(C(F)(F)F)cc(C(F)(F)F)c2)[C@H]1c1ccc(CO)cc1 , thanks.
Result block: 2.85

Query block: What measured z-score goes with CC(C)(C)OC(=O)CC[C@]1(C(=O)NCCN2CCOCC2)COC(c2ccc(OCCCO)cc2)=N1 ?
Result block: 0.0561

Query block: Suppose we examine the compound CCOC(=O)C[C@H]1[C@H](OC(=O)c2ccc(C(=O)c3ccccc3)cc2)[C@@H](NC(=O)Cc2ccc(OC)cc2)c2cc(OCCCO)ccc2N1C(=O)c1ccc2ccccc2n1 ; what z-score value has been reported?
Result block: 0.658

Query block: Recorded z-score of C=CCC(OC(C)=O)[C@@H]1[C@@H](N(Cc2ccc(-c3cccc(C(F)(F)F)c3)o2)C(=O)Cc2ccc(OC)cc2)c2cc(OCCCO)ccc2N1C(=O)c1ccc2ccccc2c1 (stereo partly specified) , please.
Result block: 2.15

Query block: Item COc1cc2c(cc1OC)CN(C(=O)[C@H]1[C@@H]3C(=O)O[C@@H](c4ccccc4)[C@@H](c4ccccc4)N3[C@@H](c3ccccc3OCCO)[C@]13C(=O)Nc1ccc(C#CCCO)cc13)CC2 has what recorded z-score?
Result block: -0.641

Query block: Could you share which z-score value was measured for OCC1C=C(/C=C/c2ccccc2)CN1Cc1ccccc1Br (stereo unspecified) ?
Result block: 1.35

Query block: Any idea what z-score was measured for COCC(=C=CC[C@H](O)c1cccc(OCCO)c1)C[C@H](O)c1cc(Cl)cc(Cl)c1O ?
Result block: 0.277

Query block: z-score for COc1cc2c(cc1O)C(c1cccs1)N(Cc1cccc(OC(F)(F)F)c1)CC2 (stereo unspecified) ?
Result block: -2.21

Query block: Requested field: z-score. Item: CCOC(=O)C[C@H]1[C@H](OC(=O)c2ccc(C(=O)c3ccccc3)cc2)[C@@H](NC(=O)c2ccccc2)c2cc(OCCCO)ccc2N1C(=O)c1ccccc1
Result block: 0.601

----------
# target-or-system: Fibroblast growth factor 2 (Homo sapiens) (UniProt P09038)
# Sequence (P09038 whole entry, looked up): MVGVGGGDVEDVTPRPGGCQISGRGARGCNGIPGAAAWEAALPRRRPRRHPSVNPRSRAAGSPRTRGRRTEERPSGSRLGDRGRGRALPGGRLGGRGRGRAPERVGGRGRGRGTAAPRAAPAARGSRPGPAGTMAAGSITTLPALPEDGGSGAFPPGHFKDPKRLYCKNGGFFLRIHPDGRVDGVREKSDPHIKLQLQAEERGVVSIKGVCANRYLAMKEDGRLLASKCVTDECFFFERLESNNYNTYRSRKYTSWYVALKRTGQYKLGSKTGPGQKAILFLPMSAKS
# assay-procedure: basic fibroblast growth factor binding to printed compounds – biochemical, small-molecule microarray, 635/667 nm fluorescence, primary screen (AID 1133)
# details: FGF2, fluorescence 635/667, higher = more signal
Entries and their composite z-score values follow.
// keep it numeric: no unit symbol after the value

Query block: Notebook: pull reported composite z-score for Fibroblast growth factor 2 (Homo sapiens) (UniProt P09038), entry C=CCN1C(=O)[C@]2(Cc3ccccc3)N=C(c3ccc(OCCCO)cc3)O[C@@H]2c2ccccc21
Result block: 1.56

Query block: Fibroblast growth factor 2 (Homo sapiens) (UniProt P09038) / composite z-score / CCOC(=O)C[C@H]1[C@H](OC(=O)c2ccc(C(=O)c3ccccc3)cc2)[C@@H](NC(=O)Cc2ccc(OC)cc2)c2cc(OCCCO)ccc2N1C(=O)c1ccc2ccccc2n1 : value?
Result block: 0.312

Query block: Request - read-out composite z-score | tested on Fibroblast growth factor 2 (Homo sapiens) (UniProt P09038) | compound COCC(=C=CC[C@@H](O)c1ccc(OCCO)cc1)C[C@@H](O)c1ccccn1
Result block: 0.249

Query block: What value of composite z-score on Fibroblast growth factor 2 (Homo sapiens) (UniProt P09038) does O=C1NC(=O)C2C1C=CC(C(O)C=Cc1ccc([N+](=O)[O-])cc1)N2Nc1ccc(Cl)cc1Cl (stereo not given) have?
Result block: -0.18

Query block: Lookup: composite z-score / Fibroblast growth factor 2 (Homo sapiens) (UniProt P09038) / CCOC(=O)C1=CC[C@@H](c2ccc(C(F)(F)F)cc2)N(S(=O)(=O)c2ccc(C)cc2)[C@H]1c1ccccc1
Result block: -0.149

----------
# target-or-system: Carbonic anhydrase 2 (Homo sapiens) (UniProt P00918)
# assay-procedure: compounds binding carbonic anhydrase 2 – biochemical, small-molecule microarray, Alexa647-labelled CAII, profiling panel (AID 1122)
# details: CAII-A647 binding fluorescence, higher = more signal
quantity-name: composite z-score

compound: COc1ccc([Si](C)(C)[C@H]2[C@H](CCO)O[C@@]3(C(=O)N(Cc4ccccc4)c4ccc(N5CCCCC5=O)cc43)[C@@H]2C)cc1
composite z-score: 0.342
--
compound: O=C(NCc1ccccc1)[C@@H]1c2ccccc2C(=O)N(C2Cc3ccccc3C2)[C@H]1c1ccc(CO)cc1
composite z-score: 0.767
--
compound: CN(C)CCCC[C@@H]1NC(=O)[C@H]2C[C@@H](C(=O)NCCCCCN)[C@@H](c3cccc(OCCO)c3)N2C1=O
composite z-score: 0.746
--
compound: COc1cc(OC)c(C(O)C2C=CC3C(=O)NC(=O)C3N2Nc2ccccn2)cc1Br (centres undefined)
composite z-score: 0.819
--
compound: COC(=O)[C@@]1(Cc2ccc(OC)cc2)[C@H]2c3cc(C(=O)N4CCCC4)n(CCc4ccc(O)c(O)c4)c3C[C@H]2CN1C(=O)c1ccccc1
composite z-score: 0.79
--
compound: O=C(O)[C@@]1(CCS(=O)(=O)c2ccccc2)N=C(c2ccc(OCCCO)cc2)O[C@H]1c1ccccc1
composite z-score: 0.864
--
compound: CO[C@H]1O[C@H](CO)[C@@H](OC(=O)Nc2ccc(Br)cc2)[C@@H]2OC(=O)[C@H](Cc3cccc(Br)c3)C/C=C/C[C@@H](Cc3cccc(Br)c3)C(=O)O[C@@H]12
composite z-score: 0.275
--
compound: COC(=O)[C@@]1(Cc2ccccc2)[C@H]2c3cc(C(=O)N4CCCC4)n(Cc4c(CO)[nH]cc(C)c4=O)c3C[C@H]2CN1C(=O)c1ccccc1
composite z-score: 0.701

Query block: Please give the measured composite z-score for this compound: O=C(O)[C@H]1C[C@H]2C(=O)N3CCC[C@H]3C(=O)N2[C@H]1c1ccc(O)cc1
Result block: 0.545

Query block: // lookup composite z-score for O=C1[C@H]2C=C(Br)[C@H](C[C@@H]2OCCCCCCO)[C@@]12CO2
Result block: -0.382

Query block: Consider the compound COc1ccc([Si](C)(C)[C@@H]2[C@@H](CCO)O[C@]3(C(=O)N(Cc4cccc(N5CCOC5=O)c4)c4ccccc43)[C@H]2C)cc1 and give its measured composite z-score.
Result block: 0.219

Query block: // returns reported composite z-score for input O=C1O[C@@H](c2ccccc2)[C@@H](c2ccccc2)N2[C@@H](c3ccc(OCCO)cc3)[C@]3(C(=O)Nc4ccc(C#CCCO)cc43)[C@@H](C(=O)NC[C@H](O)c3ccccc3)[C@H]12
Result block: 0.165

Query block: Please look up its composite z-score: COC(=O)[C@@]1(Cc2ccccc2)[C@H]2c3cc(C(=O)N4CCCC4)n(Cc4ccc(O)c(OC)c4)c3C[C@H]2CN1C(=O)c1ccccc1
Result block: 0.83
